- TARGET SYSTEM: Env of HIV-1 strain ZM53M.PB12 (HIV-1)
- ASSAY REMARKS: cell-based or functional assay
Measured neutralization IC50 of individual entries
Express the reported value numerically, then name its unit.

[
  {
    "BINDER": "γ46κ61 (antibody, V domains shown) VH: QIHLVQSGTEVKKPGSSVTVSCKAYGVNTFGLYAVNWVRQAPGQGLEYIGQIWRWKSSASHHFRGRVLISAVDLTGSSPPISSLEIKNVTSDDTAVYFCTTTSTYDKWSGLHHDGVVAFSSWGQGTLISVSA VL: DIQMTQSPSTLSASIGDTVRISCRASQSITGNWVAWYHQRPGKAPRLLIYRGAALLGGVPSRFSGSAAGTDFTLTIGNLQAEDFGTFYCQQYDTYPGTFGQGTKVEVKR",
    "neutralization IC50": "27.5 µg/mL"
  }
]

Query binder follows.
Quick check: neutralization IC50 of γ59κ5 (antibody, V domains shown) VH: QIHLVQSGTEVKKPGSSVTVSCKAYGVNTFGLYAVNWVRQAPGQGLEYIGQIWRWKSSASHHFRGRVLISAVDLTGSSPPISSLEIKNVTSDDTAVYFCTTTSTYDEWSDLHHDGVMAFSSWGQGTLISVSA VL: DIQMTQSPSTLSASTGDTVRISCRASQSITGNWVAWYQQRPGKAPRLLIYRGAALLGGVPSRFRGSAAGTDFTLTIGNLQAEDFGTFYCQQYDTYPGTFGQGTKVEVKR ?
24.1 µg/mL
